- System: Forssman vasculitis in guinea pigs
- ASSAY_REMARKS: Forssman Vasculitis Test
- Design: species or system guinea pig
- STUDY_CONDITIONS: In vivo, inhibition of combined index of lesion diameter, edema and hemorrhage, prior intraperitoneal injection at 200 mg/kg unless otherwise stated
Where a name gives a salt, the structure may show the parent alone.
Listed below: Forssman values for each entry.
Kindly provide the number alone.

1. Cc1cc(C(=O)Nc2cc(S(=O)(=O)O)cc3cc(S(=O)(=O)O)cc(O)c23)ccc1[N+](=O)[O-] [disodium salt]    48

Consider the compound Cc1ccc(NC(=O)Nc2cccc(C(=O)Nc3cc(S(=O)(=O)O)cc4cc(S(=O)(=O)O)cc(O)c34)c2)cc1[N+](=O)[O-] [disodium salt] and give its recorded Forssman.
15

Supply measured Forssman of Cc1cc(C(=O)Nc2cc(S(=O)(=O)O)cc3cc(S(=O)(=O)O)cc(O)c23)ccc1N [disodium salt] in your reply.
17

---

- MEASURED_ON: UniProtKB P09871
- Sequence (P09871 16-437 limits assumed): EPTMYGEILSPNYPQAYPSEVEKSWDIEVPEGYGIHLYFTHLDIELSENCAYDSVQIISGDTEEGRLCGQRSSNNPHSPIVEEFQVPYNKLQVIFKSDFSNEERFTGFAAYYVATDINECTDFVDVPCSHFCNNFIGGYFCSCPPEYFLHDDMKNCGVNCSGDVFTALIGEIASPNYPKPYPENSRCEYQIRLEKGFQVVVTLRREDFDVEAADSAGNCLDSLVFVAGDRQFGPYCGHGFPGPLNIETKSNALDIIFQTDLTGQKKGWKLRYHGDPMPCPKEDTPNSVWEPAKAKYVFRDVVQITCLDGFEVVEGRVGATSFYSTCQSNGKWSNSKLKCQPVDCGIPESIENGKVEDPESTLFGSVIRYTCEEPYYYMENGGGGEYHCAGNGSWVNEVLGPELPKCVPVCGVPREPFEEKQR
- Sequence (P09871 438-688 limits assumed): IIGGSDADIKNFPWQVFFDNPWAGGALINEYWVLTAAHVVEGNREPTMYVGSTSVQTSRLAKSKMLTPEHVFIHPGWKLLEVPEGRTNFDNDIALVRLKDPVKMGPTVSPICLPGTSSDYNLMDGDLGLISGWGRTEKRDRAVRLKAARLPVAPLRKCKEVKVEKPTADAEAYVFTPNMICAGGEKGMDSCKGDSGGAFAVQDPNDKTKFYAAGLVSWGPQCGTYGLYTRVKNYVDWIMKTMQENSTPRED
- ASSAY_REMARKS: Test, Code 026 (C1 inhibitor), serial dilution assay
- Assay type: biochemical
- STUDY_CONDITIONS: In vitro; well number of a two-fold serial dilution assay, higher well number indicates higher activity; NEG = negative
Where a name gives a salt, the structure may show the parent alone.
026 (activity in wells) reference
Respond using a number only.

The cases that follow already have their 026 (activity in wells) on record.
1. Cc1ccc([N+](=O)[O-])cc1C(=O)Nc1cc(S(=O)(=O)O)cc2cc(S(=O)(=O)O)cc(O)c12 [disodium salt]    2
2. Cc1ccc(C(=O)Nc2cc(S(=O)(=O)O)cc3cc(S(=O)(=O)O)cc(O)c23)cc1N [disodium salt]    5
3. O=C(Nc1cccc(C(=O)Nc2cc(S(=O)(=O)[O-])cc3cc(S(=O)(=O)[O-])cc(O)c23)c1)Nc1cccc(C(=O)Nc2cc(S(=O)(=O)[O-])cc3cc(S(=O)(=O)[O-])cc(O)c23)c1.[Na+].[Na+].[Na+].[Na+]    6
4. Cc1ccc(N)cc1C(=O)Nc1cc(S(=O)(=O)O)cc2cc(S(=O)(=O)O)cc(O)c12 [disodium salt]    2

Supply reported 026 (activity in wells) belonging to this compound: Cc1cc(C(=O)Nc2cc(S(=O)(=O)O)cc3cc(S(=O)(=O)O)cc(O)c23)ccc1[N+](=O)[O-] [disodium salt]
2

---

- System: complement level in undiluted serum
- ASSAY_REMARKS: Complement Level Reduction Test
- Design: species or system guinea pig
- STUDY_CONDITIONS: In vivo, dosed guinea pigs bled for serum; capillary tube method, compared to undosed control guinea pigs
Counter-ions that a name gives are not always drawn.
ENDPOINT_NAME: % Reduction Complement (%)
Please state the figure in %; there is no need to write the unit.

Here are 3 compounds together with their reported answers.
1) O=C(Nc1cccc(C(=O)Nc2cc3c(O)cc(S(=O)(=O)O)cc3cc2S(=O)(=O)O)c1)Nc1cccc(C(=O)Nc2cc3c(O)cc(S(=O)(=O)O)cc3cc2S(=O)(=O)O)c1    -31
2) O=C(Nc1cccc(C(=O)Nc2cc(S(=O)(=O)O)cc3cc(S(=O)(=O)O)cc(O)c23)c1)Nc1cccc(C(F)(F)F)c1 [disodium salt]    -6
3) Cc1ccc([N+](=O)[O-])cc1C(=O)Nc1cc(S(=O)(=O)O)cc2cc(S(=O)(=O)O)cc(O)c12 [disodium salt]    -17

Okay, next one:
Provide the reported % Reduction Complement (system: complement level in undiluted serum) for Cc1cc(C(=O)Nc2cc(S(=O)(=O)O)cc3cc(S(=O)(=O)O)cc(O)c23)ccc1[N+](=O)[O-] [disodium salt]
-20

---

Listing of recorded 026 (activity in wells) by entry.
- MEASURED_ON: C1 (Homo sapiens)
- ASSAY_REMARKS: Test, Code 026 (C1 inhibitor), serial dilution assay
- Format: biochemical
- STUDY_CONDITIONS: In vitro; well number of a two-fold serial dilution assay, higher well number indicates higher activity; NEG = negative
Structures can show the parent of a compound that is named as a salt.
Lab note: record just the number, no unit beside it.

1) O=C(Nc1cccc(C(=O)Nc2cc3c(O)cc(S(=O)(=O)O)cc3cc2S(=O)(=O)O)c1)Nc1cccc(C(=O)Nc2cc3c(O)cc(S(=O)(=O)O)cc3cc2S(=O)(=O)O)c1    5
2) O=C(Nc1ccc(S(=O)(=O)F)cc1)Nc1cccc(C(=O)Nc2cc(S(=O)(=O)[O-])cc3cc(S(=O)(=O)[O-])cc(O)c23)c1.[Na+].[Na+]    4
3) Cc1ccc(C(=O)Nc2cc(S(=O)(=O)O)cc3cc(S(=O)(=O)O)cc(O)c23)cc1[N+](=O)[O-] [disodium salt]    3

Give the reported 026 (activity in wells) for this molecule. O=C(Nc1cccc(C(=O)Nc2cc(S(=O)(=O)O)cc3cc(S(=O)(=O)O)cc(O)c23)c1)Nc1cccc(C(F)(F)F)c1 [disodium salt]
1

Determine from records and report 026 (activity in wells) for Cc1cc(C(=O)Nc2cc(S(=O)(=O)O)cc3cc(S(=O)(=O)O)cc(O)c23)ccc1N [disodium salt]
5

---

Forssman by entry:
- Test system: Forssman vasculitis in guinea pigs
- ASSAY_REMARKS: Forssman Vasculitis Test
- Set-up: species or system guinea pig
- STUDY_CONDITIONS: In vivo, inhibition of combined index of lesion diameter, edema and hemorrhage, prior intraperitoneal injection at 200 mg/kg unless otherwise stated
Counter-ions that a name gives are not always drawn.
Respond with the number and no other words.

Identify Forssman associated with the compound Cc1ccc([N+](=O)[O-])cc1C(=O)Nc1cc(S(=O)(=O)O)cc2cc(S(=O)(=O)O)cc(O)c12 [disodium salt]
10

Give the reported Forssman for this compound. O=C(Nc1cccc(C(=O)Nc2cc(S(=O)(=O)O)cc3cc(S(=O)(=O)O)cc(O)c23)c1)Nc1cccc(C(F)(F)F)c1 [disodium salt]
5

Specify Forssman for O=C(Nc1cccc(C(=O)Nc2cc3c(O)cc(S(=O)(=O)O)cc3cc2S(=O)(=O)O)c1)Nc1cccc(C(=O)Nc2cc3c(O)cc(S(=O)(=O)O)cc3cc2S(=O)(=O)O)c1 and stop.
35
